- test_system: T1, wild type CD70-His-Avi (human, UniProt P32970 45-193)
- T1 sequence (looked up): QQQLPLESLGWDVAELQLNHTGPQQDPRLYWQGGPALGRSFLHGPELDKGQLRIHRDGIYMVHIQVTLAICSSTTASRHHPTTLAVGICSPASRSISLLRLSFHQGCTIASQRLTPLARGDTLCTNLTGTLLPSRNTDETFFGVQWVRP
- assay_details: SPR
endpoint: koff (s⁻¹)
Field format: number, assumed s⁻¹, no unit text.

Completed entries (count: 3):
CD27-S83A (receptor, human, UniProt P26842 23-127, looked up, glycosylated) APKSCPERHYWAQGKLCCQMCEPGTFLVKDCDQHRKAAQCDPCIPGVSFSPDHHTRPHCEACRHCNSGLLVRNCTITANAECACRNGWQCRDKECTECDPLPNPS | 0.00854
CD27-K115A (receptor, human, UniProt P26842 23-127, looked up, glycosylated) APKSCPERHYWAQGKLCCQMCEPGTFLVKDCDQHRKAAQCDPCIPGVSFSPDHHTRPHCESCRHCNSGLLVRNCTITANAECACRNGWQCRDAECTECDPLPNPS | 0.00351
CD27-N95A (receptor, human, UniProt P26842 23-127, looked up) APKSCPERHYWAQGKLCCQMCEPGTFLVKDCDQHRKAAQCDPCIPGVSFSPDHHTRPHCESCRHCNSGLLVRACTITANAECACRNGWQCRDKECTECDPLPNPS | 0.00726

Let us examine a further case.
IN: Supply measured koff of CD27-R30A (receptor, human, UniProt P26842 23-127, looked up, glycosylated) APKSCPEAHYWAQGKLCCQMCEPGTFLVKDCDQHRKAAQCDPCIPGVSFSPDHHTRPHCESCRHCNSGLLVRNCTITANAECACRNGWQCRDKECTECDPLPNPS in your reply.
OUT: 0.0047
